Details: rat, in vivo, iv, 10 ug/kg
Where no end group is shown, it is not given here. [ ]: non-standard residue; d: D form. The star is where a group is joined. Hexanoyl = CCCCCC(=O)*; Aib = CC(C)(N)C(=O)O
Recorded Exposure (10 μg/kg, Vdist in μg/(nM * kg)), one value per entry.
Just the number in µg/nM/kg, nothing appended.

Q: Which value of Exposure (10 μg/kg, Vdist in μg/(nM * kg)) has been reported for Hexanoyl-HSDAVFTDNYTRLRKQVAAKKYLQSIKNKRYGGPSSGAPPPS [Agonist P31] in the records?
Result: 10

Q: Which value of Exposure (10 μg/kg, Vdist in μg/(nM * kg)) has been reported for HSDAVFTDNYTRLLAKVAAKKYLQSIKNKRYGGPSSGAPPPS [Agonist P89] in the records?
Result: 0.64

Q: Which value of Exposure (10 μg/kg, Vdist in μg/(nM * kg)) has been reported for Hexanoyl-HSDAVFTDNYTRLR[Aib]QVAA[Aib]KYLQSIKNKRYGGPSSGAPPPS [Agonist P261] in the records?
Result: 0.8

More entries:
Q: Which value of Exposure (10 μg/kg, Vdist in μg/(nM * kg)) has been reported for Hexanoyl-HSDAVFTDNYTRLR[Aib]QVAAK[Aib]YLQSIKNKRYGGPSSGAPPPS [Agonist P264] in the records?
Result: 5.1

* * *

Recorded pEC50, one value per entry.
Target: human VPAC2 (Homo sapiens, UniProt P41587)
Construct: expressed in transfected cells
Sequence (P41587 24-438): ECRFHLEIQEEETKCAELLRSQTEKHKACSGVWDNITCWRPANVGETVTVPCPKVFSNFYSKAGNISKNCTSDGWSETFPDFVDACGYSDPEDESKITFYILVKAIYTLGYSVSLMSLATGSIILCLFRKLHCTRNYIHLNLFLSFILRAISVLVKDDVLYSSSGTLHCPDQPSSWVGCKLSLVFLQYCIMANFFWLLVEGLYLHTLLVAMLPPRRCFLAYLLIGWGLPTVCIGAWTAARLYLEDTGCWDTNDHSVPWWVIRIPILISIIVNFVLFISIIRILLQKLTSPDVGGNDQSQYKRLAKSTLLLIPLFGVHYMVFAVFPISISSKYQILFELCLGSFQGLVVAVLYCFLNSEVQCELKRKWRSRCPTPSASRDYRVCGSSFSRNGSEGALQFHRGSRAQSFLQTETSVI
Experiment: Alpha screen cAMP in vitro potency, human VPAC2 receptor
Assay type: cell-based
Settings: cAMP generation; single result from two analyses performed in a single run; read-out: Human VPAC2 Receptor: Alpha Screen EC50
Where no end group is shown, it is not given here. [ ]: non-standard residue; d: D form. The star is where a group is joined. hArg = N=C(N)NCCCC[C@H](N)C(=O)O; Orn = NCCC[C@H](N)C(=O)O; Hexanoyl = CCCCCC(=O)*; Aib = CC(C)(N)C(=O)O
# pEC50 is unitless: minus log10 of the molar concentration; print number only

Q: Which value of pEC50 has been reported for Hexanoyl-HSDAVFTDNYTRL[hArg][Aib]QVAA[Aib]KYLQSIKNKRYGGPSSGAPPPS [Agonist P316] in the records?
Result: 9.52

More entries:
Q: Which value of pEC50 has been reported for Hexanoyl-HSDAVFTDNYTKLKKQVAAKKYLQSIKNKKYGGPSSGAPPPS [Agonist P103] in the records?
Result: 9.92

Q: Which value of pEC50 has been reported for Hexanoyl-HSDAVFTDNYTRLRKQVAAK[Aib]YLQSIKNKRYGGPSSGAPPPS [Agonist P170] in the records?
Result: 9.74

Q: Which value of pEC50 has been reported for Hexanoyl-HSDAVFTKNYTRLRKQVAAKKYLQSIKNKRYGGPSSGAPPPS [Agonist P160] in the records?
Result: 7.88

Q: Which value of pEC50 has been reported for Hexanoyl-HSDAVFTDNYTRLRKQVAAQKYLQSIKNKRYGGPSSGAPPPS [Agonist P150] in the records?
Result: 9.74

Q: Which value of pEC50 has been reported for Hexanoyl-HSDAVFTDNYTRLRRQVAAKKYLQSIKNKRYGGPSSGAPPPS [Agonist P176] in the records?
Result: 9.55

Q: Which value of pEC50 has been reported for Hexanoyl-HSDAVFTDNYTRL[Orn][Aib]QVAA[Aib]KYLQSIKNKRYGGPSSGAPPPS [Agonist P319] in the records?
Result: 9.59

Q: Which value of pEC50 has been reported for Hexanoyl-HSDAVFTDNYTR[Aib]R[Aib]QVAA[Aib]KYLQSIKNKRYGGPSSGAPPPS [Agonist P346] in the records?
Result: 9.64
